Tested Target: FGFR3 (UniProt P22607)
Sequence (P22607 whole entry, looked up): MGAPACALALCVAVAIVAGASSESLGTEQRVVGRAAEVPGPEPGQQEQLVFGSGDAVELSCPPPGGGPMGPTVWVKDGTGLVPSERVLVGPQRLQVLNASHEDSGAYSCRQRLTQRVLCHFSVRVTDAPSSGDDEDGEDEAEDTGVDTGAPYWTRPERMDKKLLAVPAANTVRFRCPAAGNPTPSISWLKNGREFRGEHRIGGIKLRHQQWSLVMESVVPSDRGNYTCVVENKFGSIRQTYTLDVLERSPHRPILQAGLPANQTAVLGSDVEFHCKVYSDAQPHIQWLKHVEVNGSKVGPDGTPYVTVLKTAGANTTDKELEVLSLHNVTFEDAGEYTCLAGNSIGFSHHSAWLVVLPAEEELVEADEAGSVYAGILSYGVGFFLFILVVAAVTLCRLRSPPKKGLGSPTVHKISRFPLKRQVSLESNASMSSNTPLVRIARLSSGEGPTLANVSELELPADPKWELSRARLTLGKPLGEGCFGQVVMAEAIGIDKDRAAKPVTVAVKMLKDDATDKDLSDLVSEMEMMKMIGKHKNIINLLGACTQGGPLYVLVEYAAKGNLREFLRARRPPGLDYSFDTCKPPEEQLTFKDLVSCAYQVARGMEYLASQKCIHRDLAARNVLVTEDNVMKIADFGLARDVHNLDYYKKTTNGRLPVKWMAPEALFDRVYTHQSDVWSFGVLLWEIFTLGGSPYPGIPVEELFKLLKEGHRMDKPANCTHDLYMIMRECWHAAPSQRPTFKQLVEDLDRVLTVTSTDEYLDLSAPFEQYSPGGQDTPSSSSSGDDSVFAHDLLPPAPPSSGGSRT
Assay Protocol: phosphorylation enrichment, bacterial display (enrichment ratio); higher = better substrate or ligand; peptides without Tyr show the background;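 also: 11-residue human phosphosite peptides and single-mutation variants displayed on the E. coli surface, counted by deep sequencing, each peptide's frequency after selection divided by its frequency in the unselected input library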;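 also: frequency after pTyr selection over input frequency; kinase dosed for 20-30% of maximal phosphorylation in three min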
Below: a set of entries, each annotated with reported phosphorylation enrichment.

Record Sequence	Measured
SSFSRYIMMPN [LEF1_Y114_G113R_YF]	0.617
IIRQLYLKWHP [SACS_Y4333_R4331Q]	0.604
DAGTDYVGISR [FREM2_Y2061]	0.621

Consider the sequence QLQTNYPSSDN [MAX_Y115] and give its measured phosphorylation enrichment.
0.725

Consider the sequence YIRKDYEACKA [BBS4_Y48] and give its measured phosphorylation enrichment.
0.38

Consider the sequence GLSDPYVKIHL [SYT2_Y309] and give its measured phosphorylation enrichment.
0.589

Consider the sequence KSVLVYRNGDP [DCDC2_Y22] and give its measured phosphorylation enrichment.
0.449
